# Tested on: Lewis lung carcinoma i.m., BDF1 mice, T/C %
# protocol description: NCI In Vivo Anticancer Drug Screen. Data for tumor model Lewis Lung Carcinoma (intramuscular) in B6D2F1 (BDF1) mice
# measurement setup: endpoint: median survival time; dose: 12.5 mg/kg/injection; schedule: Q01DX011 (ip); vehicle: saline with Tween-80; higher = longer survival
Records with an inconclusive call do not appear.

{"chemical structure": "Clc1ccc2nc(CI)c(CI)nc2c1", "T/C": "88 % of control"}
{"chemical structure": "CCCCOc1ccc(NC(N)=Nc2ccc(Cl)cc2)cc1", "T/C": "102 % of control"}
{"chemical structure": "O=[N+]([O-])c1cc(Cl)cc2c1nc(NCCO)c1ccccc12", "T/C": "98 % of control"}
{"chemical structure": "C[C@]12CC[C@H]3[C@@H](CC[C@]4(O)C[C@@H](O)CC[C@]34C=O)[C@@]1(O)CC[C@@H]2C1=CC(=O)OC1", "T/C": "106 % of control"}
{"chemical structure": "O=C1C(=O)c2ccccc2C(O)=C1CC=C(Cl)Cl", "T/C": "93 % of control"}
{"chemical structure": "CCC[CH2][Sn](=[S])[CH2]CCC", "T/C": "116 % of control"}

Provenance of the data: PubChem BioAssay AID272
